# testName: Inhibition of Elastase (unknown origin) using N-methoxysuccinyl-Ala-Ala-Pro-Val-p-nitroanilide as substrate incubated for 20 mins followed by substrate addition and measured after 40 mins
# Parameters: species or system Homo sapiens
metric: IC50 (µM)
One number for each entry, in µM.

Quick one: IC50 for `O=c1c2ccc(O)cc2oc2cc(O)ccc12` ?
91.8

###

# testName: Inhibition of Elastase (unknown origin) using N-methoxysuccinyl-Ala-Ala-Pro-Val-p-nitroanilide as substrate incubated for 20 mins followed by substrate addition and measured after 40 mins
# Design: species or system Homo sapiens
metric: IC50 (nM)
Numbers only, in nM.

What does the record list as IC50 for `H-MAAPVCK-OH` ?
260

src = ChEMBL document CHEMBL4673324
